- Tested on: A549 NSCLC
- Experimental details: NCI tumour cell line growth inhibition, 48 h
Entries are grouped by TGI into these classes: one (below 20 µM), two (20 µM to below 40 µM), three (40 µM or more)

Illustrative cases are given below, each with its answer.
[[record]]
molecule = "C[N+](C)([O-])CCCNc1ccnc2cccc([N+](=O)[O-])c12"
target_entity = "A549 NSCLC"
category = "three"

[[record]]
molecule = "COc1ccc2[nH]c(O)c(/C=c3/cc4c(c(-c5ccc(F)cc5)n3)=Nc3ccccc3-4)c2c1"
target_entity = "A549 NSCLC"
category = "one"

[[record]]
molecule = "O=[N+]([O-])c1ccc2ncccc2c1CCc1c([N+](=O)[O-])ccc2ncccc12"
target_entity = "A549 NSCLC"
category = "three"

[[record]]
molecule = "COCCNC1CCC2(SCCS2)c2[nH]c3ccccc3c21 (configuration not stated)"
target_entity = "A549 NSCLC"
category = "three"

[[record]]
molecule = "COc1cc2c(cc1OCCCCCOc1cc3c(cc1OC)C(=O)N1CCC[C@H]1CN3)N=C[C@@H]1CCCN1C2=O"
target_entity = "A549 NSCLC"
category = "two"

[[record]]
molecule = "CC(=O)n1ccc2c(Cl)ncnc21"
target_entity = "A549 NSCLC"
category = "three"


Input CN(C)CCNc1nc2ccccc2c2c(=O)c3ccccc3sc12 ; output its category one

Input C#CCOC(=O)C(N)CCSC (configuration not stated) ; output its category three

Input N=C(N)SCCc1ccccn1 ; output its category three

Input O=c1c2c3c(sc2n2c(-c4ccc(Br)cc4)nnc2n1Cc1ccccc1)CCCC3 ; output its category two

Input CCCn1c(N)c(C(=O)CNc2ccc(I)cc2)c(=O)[nH]c1=O ; output its category three

Input Cc1cc(O)c(C(C)C)cc1N=Cc1ccccc1O ; output its category three

Input C1CC[N-]CC1.CC(=N\O)/C(C)=N/O.CC(=N\O)/C(C)=N/O.[CH2-]CCN1CCOCC1.[Co+2] ; output its category three

Input COc1cc2c(cc1OC)-c1ncc3cc4c(cc3c1C2)OCO4 ; output its category three

Input O=C(c1ccccc1)C1C(C(=O)c2ccccc2)C(c2ccccc2)N(c2ccccc2)C1c1ccccc1 (configuration not stated) ; output its category three

Input CSC1=C(C(=O)Nc2ccccc2)C(N)=NC1=O ; output its category three

Input CCCCOc1ccc(/C=N/Nc2cc(C)nc3ccc(Cl)cc23)cc1 ; output its category one

###

- System: CAKI-1 renal
- Experimental details: NCI tumour cell line growth inhibition, 48 h
Readout: TGI

Return reported TGI values for all items listed beneath this line.
1. N=C(c1cccs1)C1(N2CCCCC2)CCCCC1
2. CCCn1c(N)c(C(=O)CNc2ccc(I)cc2)c(=O)[nH]c1=O

1: 32.9 µM; 2: > 100 µM

Return reported TGI values for all items listed beneath this line.
1. C#CCCCC(=O)N(C(=O)CS(=O)CC)c1ccccc1 (centres undefined)
2. COc1cccc(C2=C(c3cn(C)c4cccc(OC)c34)C(=O)NC2=O)c1
3. COc1cc2c(c(OC)c1OC)-c1ccc(SC)cc1C(=O)CC2
4. CC1(C)[C@@H](OC(N)=O)C=C[C@]2(C=O)[C@H]3CC[C@]4(C)[C@@H](c5ccc(=O)oc5)[C@@H](Cl)C[C@]4(O)C3=CC[C@@H]12
5. CN(C)CCn1nc(N)c2nc3cc(C(F)(F)F)ccc3nc21

1: > 100 µM; 2: > 25 µM; 3: > 100 µM; 4: 0.00846 µM; 5: > 100 µM

Return reported TGI values for all items listed beneath this line.
1. O=S(=O)(/N=C(\NO)Nc1ccc(Cl)cc1)c1ccc(-c2ccccn2)s1
2. CN1CCN(CCOc2ccc(-c3cnc4c(-c5ccc(F)cc5)cnn4c3)cc2)CC1

["66 µM", "2.89 µM"]

Return reported TGI values for all items listed beneath this line.
1. O=C1C[C@H](c2ccc(O)c(O)c2)Oc2cc(O)cc(O)c21
2. Brc1cccc[n+]1-c1ccc2cc(-[n+]3ccccc3Br)ccc2c1
3. CO[C@H](C(=O)O)[C@@H]1Cc2cc3cc(OC4CC(OC5CC(O)C(O)C(C)O5)C(O)C(C)O4)c(C)c(O)c3c(O)c2C(=O)[C@H]1OC1CC(OC2CC(OC3CC(C)(O)C(O)C(C)O3)C(O)C(C)O2)C(O)C(C)O1 (some centres undefined)
4. COC(=O)[C@]12CC[C@@H](C)[C@H](C)[C@@H]1C1=CC[C@@H]3[C@@]4(C)CC(=O)[C@H](OC(=O)c5ccco5)[C@@]5(C)COC(=C45)C[C@@]3(C)[C@]1(C)CC2
5. Cc1ccc(NC(=O)CCC(=O)C(C#N)c2ccccc2)cc1C (centres undefined)
6. Nc1ccc(C(=O)N/C(=C\c2cccc([N+](=O)[O-])c2)c2nc3c4c(ccc3[nH]2)C(=O)c2ccccc2C4=O)cc1
7. C[N+](C)(N)c1nc(N)c(C#N)c(C#N)c1C#N

["> 100 µM", "> 100 µM", "> 32.5 µM", "> 100 µM", "> 100 µM", "> 100 µM", "> 10 µM"]

###

So I've got a bunch of compounds here, and I need their TGI values.
- Tested on: HCC-2998 colon
- Experimental details: NCI tumour cell line growth inhibition, 48 h

Below: 10 compounds and their reported TGI.
[[record]]
compound = "C1C[OH+]CC[OH+]CC[OH+]CC[OH+]CC[OH+]CC[OH+]1.[Cl-].[Nb+5]"
target_entity = "HCC-2998 colon"
test_value = "> 100 µM"

[[record]]
compound = "O=C(c1ccccc1)C1C(C(=O)c2ccccc2)C(c2ccccc2)N(c2ccccc2)C1c1ccccc1 (configuration not stated)"
target_entity = "HCC-2998 colon"
test_value = "> 100 µM"

[[record]]
compound = "C#CCCCC(=O)N(C(=O)CS(=O)CC)c1ccccc1 (configuration not stated)"
target_entity = "HCC-2998 colon"
test_value = "> 100 µM"

[[record]]
compound = "CN1C(=O)N(C)C2(CCN(CCCCCCF)CC2)C1=O"
target_entity = "HCC-2998 colon"
test_value = "> 100 µM"

[[record]]
compound = "CN(C)CCn1nc(N)c2nc3cc(C(F)(F)F)ccc3nc21"
target_entity = "HCC-2998 colon"
test_value = "> 100 µM"

[[record]]
compound = "C[N+](C)(N)c1nc(N)c(C#N)c(C#N)c1C#N"
target_entity = "HCC-2998 colon"
test_value = "> 10 µM"

[[record]]
compound = "C=CCC(CNC(=O)OCc1ccccc1)OC(=O)OCc1ccccc1 (configuration not stated)"
target_entity = "HCC-2998 colon"
test_value = "> 100 µM"

[[record]]
compound = "c1ccc(C2[C@@H]3CCCc4ccccc4C3=NN2c2ccccc2)cc1 (some centres not stated)"
target_entity = "HCC-2998 colon"
test_value = "> 100 µM"

[[record]]
compound = "O=C(Nc1cccc(C(F)(F)F)c1)c1cc(Br)cc(Br)c1O"
target_entity = "HCC-2998 colon"
test_value = "> 10 µM"

[[record]]
compound = "COc1ccccc1NS(=O)(=O)c1ccc2ncn(NS(=O)(=O)c3ccc(Cl)cc3)c(=O)c2c1"
target_entity = "HCC-2998 colon"
test_value = "> 100 µM"


Return reported TGI values for all items listed beneath this line.
1. C=CCN1CCC2(CC1)NC(=O)c1ccccc1O2
2. COc1ccc(C(=O)O/N=C2/CCC/C2=C\c2ccccc2)cc1

1. > 100 µM
2. > 100 µM

###

- System: HS 578T breast
- Experimental details: NCI tumour cell line growth inhibition, 48 h
Readout: GI50

Below: 5 compounds and their reported GI50.
[[record]]
compound = "C#Cc1cc2c(N)c(C(=O)c3cc(OC)c(OC)c(OC)c3)[nH]c2cc1OC"
test_value = "1340 nM"

[[record]]
compound = "CN1CCN(CCOc2ccc(-c3cnc4c(-c5ccc(F)cc5)cnn4c3)cc2)CC1"
test_value = "1490 nM"

[[record]]
compound = "O=C(CCl)Nc1cc(O)c2c(c1)C(=O)c1cccc(O)c1C2=O"
test_value = "2460 nM"

[[record]]
compound = "COc1c(N2CCN(Cn3c(O)c(N=NC(=O)c4ccncc4)c4cc(F)ccc43)C(C)C2)c(F)cc2c(=O)c(C(=O)O)cn(C3CC3)c12 (stereo unspecified)"
test_value = "294 nM"

[[record]]
compound = "COc1ccc(/C=N/N=C(\\[O-])c2ccncc2)cc1F.COc1ccc(/C=N\\N=C(/[O-])c2ccncc2)cc1F.[Cu+2]"
test_value = "18000 nM"


GI50 recorded for this compound, CC1(C)[C@@H](OC(N)=O)C=C[C@]2(C=O)[C@H]3CC[C@]4(C)[C@@H](c5ccc(=O)oc5)[C@@H](Cl)C[C@]4(O)C3=CC[C@@H]12 , is < 2.5 nM
